Recorded INHIBITION, one value per entry.
# Test system: Plasmodium berghei
# EXPERIMENT_DESCRIPTION: Screen against P. berghei liver stage (PbLuc), transformed with Luciferase, at 10uM
# Format: functional, HepG2
# TEST_SETTINGS: tested at 10 uM
The whole screen tested about 69,000 compounds, of which about 8,600 (12%) showed an effect of 50% or more. The entries come from a sample that favours strong results as a whole.
QUANTITY: INHIBITION (%)

Cc1nccn1-c1ccc(N2CCC(N[C@H](C)C(C)C)CC2)cc1	43
Cc1noc(C)c1CN1CC[C@H]2OCC[C@@H](C(=O)NCC3CC3)[C@@H]2C1	-3.83
O=C1C[C@@H]2CC[C@H](CN1)N2C(=O)CCc1ccc2c(c1)OCO2	17.6
O=C(C1CC=CC1)N1C[C@@H](OCc2cccnc2)[C@H]2OCCC[C@H]21	0.72
O=C(O)CCCC(=O)Nc1cnn(COc2ccc(F)cc2Cl)c1	4.52
COc1ccc(CN2CCn3cc(CNC(=O)C4CCC4)nc3C2)cc1	19.5
CN(C)C(=O)C1CN(Cc2ccsc2)Cc2ccnn2C1 (stereo unspecified)	52.6
Cc1cc(C)n(CC2CN(Cc3cccc(C#N)c3)CCO2)n1 (stereo unspecified)	-8.11
CCN1CCC(NC(=O)NCC(O)c2ccc(Cl)c(F)c2)CC1 (stereo unspecified)	43.1
Nc1ncc(-c2cccc(NC(=O)[C@@H]3CCCCN3)c2)cn1	14.5
COc1ccc(C)cc1C(C)NCc1cccn1C (stereo unspecified)	-40.7
COCCNC(=O)C1CN(Cc2ccsc2)Cc2ccnn2C1 (stereo unspecified)	5.36
CC(=O)NCCC(Cc1ccccc1)c1ccco1 (stereo unspecified)	-24.6
CN(C)c1ccc(CNC2(c3ccc(F)cc3)CCOCC2)cc1F	55.6
CC(NCc1cccn1C)c1noc(-c2ccc(Cl)cc2)n1 (stereo unspecified)	-1.15
COc1cccc(CN2CCC(O)(c3ccc(C)cn3)CC2)c1OC	-57.5
N#Cc1cccc(CN2C[C@@H]3CN(c4ncccn4)C[C@@H]3C2)c1	8.66
CC(C)=CCN1C[C@@H]2CC[C@H]1CN(Cc1cc(=O)[nH]c(=O)[nH]1)C2	39
COc1ccnc(CN2CCC(O)(c3ccc(C)cn3)CC2)c1OC	-23.4
CN(C)C(=O)Cn1c(C2CC2)c(CN2CCC(O)CC2)c2cccnc21	-8.58
CCOCC1CN(Cc2cccs2)Cc2nn(C)cc21 (stereo unspecified)	-2.72
CNC(=O)[C@H]1C[C@@H]2CN(C(=O)c3ccsc3)C[C@@H]2N1S(C)(=O)=O	32.2
CC1=C(C#N)C(=O)NC(=O)/C1=C\c1c(C)[nH]n(-c2ccc(C)cc2)c1=O	47.1
CCCSc1ncc(CN(C)CCN2CCCCC2)cn1	32.3
CCc1nc(C)c(C(=O)NCCN2CCCC2)s1	-19.9
Cc1noc(C)c1CN1CC[C@H]2OCC[C@@H](C(=O)N3CCCO3)[C@@H]2C1	34.1
CN(Cc1cnc(N)nc1)C(=O)c1coc(COc2cccc(F)c2)n1	0.546
COCC(=O)Nc1cnn(COc2ccc(F)cc2Cl)c1	0.348
COCc1noc(-c2ccc(N(C)Cc3ccc(C)o3)nc2)n1	-26.7
COCCNC(=O)C1CN(Cc2nccs2)Cc2ccnn2C1 (stereo unspecified)	29.9
CNc1snc(C)c1C(=O)N1CCCC(n2ccnc2C)C1 (stereo unspecified)	37.9
COc1ccc(Cn2nnnc2SCC2CCCN(C)C2)cc1 (stereo unspecified)	40.5
CC(C)C(=O)NCc1ccc(N2CCCC2)nc1	-24.2
CC(C)=CCN1C[C@@H]2CC[C@H]1CN(Cc1coc(C)n1)C2	55
Cc1nn(C)c(N(C)C)c1CNC1CCOc2c(Cl)cccc21 (stereo unspecified)	-17.7
CCN(CC)CCNc1nc(C(C)C)nc2c(C)nn(CC)c12	44.9
CC(C)NC(=O)C1CN(Cc2ccsc2)Cc2ccnn2C1 (stereo unspecified)	37.9
CSc1ccc(CNC2(c3ccc(F)cc3)CCOCC2)cc1	13.5
CC(C)CNC(=O)N1CCC2(CC1)OC(C(N)=O)Cn1ccnc12 (stereo unspecified)	39.4
Cc1nccn1-c1ccc(N2CCC(NC(C)C(C)C)CC2)cc1 (stereo unspecified)	25.8
CC(C)c1ocnc1C(=O)NC(c1nnc2n1CCNCC2)C(C)C (stereo unspecified)	65.5
